B1: tRNA (parent)
chain: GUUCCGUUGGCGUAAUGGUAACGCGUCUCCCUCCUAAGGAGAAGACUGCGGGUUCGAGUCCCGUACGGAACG

# Variants of: B1
# procedure_details: yeast fitness, log relative to wild type (ln ratio); higher = fitter; tRNA-Arg(CCU), competitive growth, 37 C, 1 M NaCl

| variant_code | yeast fitness (ln) |
| --- | --- |
| U2C A70U | -0.0103 |
| G1A U2G G6U C46U C66A A69G A70U C71U | -0.227 |
| G1A U2C C27U C66U A70G | -0.0715 |
| C27U C46U C66A A69G A70G | -0.124 |
| G6U C46U C66A | 0.00404 |
| G1A U2G C46U C66U A70G | -0.148 |
| G6A C66U A69G C71U | -0.085 |
| G1A U2C G6A C27U C46U A69G A70G C71U | -0.489 |
| U2G G6A C27U C46U A69G A70G | -0.174 |
| U2G G6A C46U C66U A69G A70U | -0.00305 |
| G1A U2C G6A C27U C66U A69G A70G C71U | -0.0671 |
| G1A U2G G6U C46U C66A A70G | -0.258 |
| G1A U2G G6U A43C C46U C66U A69G A70U C71U | -0.499 |
| G1A U2G G6U C27U C46U C66A | -0.2 |
| G1A U2G C46U C66U A69G A70G | -0.172 |
| U2G C46U C66A A69G A70G C71U | -0.139 |
| G1A U2C A43C A69G A70G C71U | -0.0094 |
| G1A U2G C27U A69G | -0.145 |
| U2C G6A C66U A69G A70U C71U | -0.343 |
| U2G G6U C66A A69G A70G | -0.25 |
| G1A U2G G6A C27U A43C A70G | -0.381 |
| G1A C27U C46U C66U A70U | -0.154 |
